Just for reference, ChEMBL document CHEMBL3739261 is where these values come from.

test: Solubility of compound in distilled water after 24 hrs by HPLC analysis; type: physicochemical
parameter: solubility at 24 h

Solved cases below.
smilesRepr: O=C1O[C@@H](CN2CCC(c3ccc(F)cc3)CC2)CN1c1ccc(-n2cc(-c3ccccn3)cn2)c(F)c1
parameter: solubility at 24 h
result: ≤ 19.4 µM
//
smilesRepr: CN(CCO)C[C@H]1CN(c2ccc(-n3cc(-c4ccccn4)cn3)c(F)c2)C(=O)O1
parameter: solubility at 24 h
result: 669 µM
//
smilesRepr: O=C1O[C@@H](CN2CCN(CCO)CC2)CN1c1ccc(-n2cc(-c3ccccn3)cn2)c(F)c1
parameter: solubility at 24 h
result: 125 µM

Below are some compounds; for each one, tell me its solubility at 24 h.
1. CN(C)S(=O)(=O)NC[C@H]1CN(c2ccc(-n3cc(-c4ccccn4)cn3)c(F)c2)C(=O)O1
2. NC(=O)[C@H]1CN(c2ccc(-n3cc(-c4ccccn4)cn3)c(F)c2)C(=O)O1
3. O=C(CF)NC[C@H]1CN(c2ccc(-n3cc(-c4ccccn4)cn3)c(F)c2)C(=O)O1

Result:
1: 472 µM; 2: 27.2 µM; 3: 61.8 µM
